# TARGET_OR_TEST_SYSTEM: N-type calcium channel (NTCC) (Homo sapiens, UniProt Q00975)
# Sequence (Q00975 whole entry): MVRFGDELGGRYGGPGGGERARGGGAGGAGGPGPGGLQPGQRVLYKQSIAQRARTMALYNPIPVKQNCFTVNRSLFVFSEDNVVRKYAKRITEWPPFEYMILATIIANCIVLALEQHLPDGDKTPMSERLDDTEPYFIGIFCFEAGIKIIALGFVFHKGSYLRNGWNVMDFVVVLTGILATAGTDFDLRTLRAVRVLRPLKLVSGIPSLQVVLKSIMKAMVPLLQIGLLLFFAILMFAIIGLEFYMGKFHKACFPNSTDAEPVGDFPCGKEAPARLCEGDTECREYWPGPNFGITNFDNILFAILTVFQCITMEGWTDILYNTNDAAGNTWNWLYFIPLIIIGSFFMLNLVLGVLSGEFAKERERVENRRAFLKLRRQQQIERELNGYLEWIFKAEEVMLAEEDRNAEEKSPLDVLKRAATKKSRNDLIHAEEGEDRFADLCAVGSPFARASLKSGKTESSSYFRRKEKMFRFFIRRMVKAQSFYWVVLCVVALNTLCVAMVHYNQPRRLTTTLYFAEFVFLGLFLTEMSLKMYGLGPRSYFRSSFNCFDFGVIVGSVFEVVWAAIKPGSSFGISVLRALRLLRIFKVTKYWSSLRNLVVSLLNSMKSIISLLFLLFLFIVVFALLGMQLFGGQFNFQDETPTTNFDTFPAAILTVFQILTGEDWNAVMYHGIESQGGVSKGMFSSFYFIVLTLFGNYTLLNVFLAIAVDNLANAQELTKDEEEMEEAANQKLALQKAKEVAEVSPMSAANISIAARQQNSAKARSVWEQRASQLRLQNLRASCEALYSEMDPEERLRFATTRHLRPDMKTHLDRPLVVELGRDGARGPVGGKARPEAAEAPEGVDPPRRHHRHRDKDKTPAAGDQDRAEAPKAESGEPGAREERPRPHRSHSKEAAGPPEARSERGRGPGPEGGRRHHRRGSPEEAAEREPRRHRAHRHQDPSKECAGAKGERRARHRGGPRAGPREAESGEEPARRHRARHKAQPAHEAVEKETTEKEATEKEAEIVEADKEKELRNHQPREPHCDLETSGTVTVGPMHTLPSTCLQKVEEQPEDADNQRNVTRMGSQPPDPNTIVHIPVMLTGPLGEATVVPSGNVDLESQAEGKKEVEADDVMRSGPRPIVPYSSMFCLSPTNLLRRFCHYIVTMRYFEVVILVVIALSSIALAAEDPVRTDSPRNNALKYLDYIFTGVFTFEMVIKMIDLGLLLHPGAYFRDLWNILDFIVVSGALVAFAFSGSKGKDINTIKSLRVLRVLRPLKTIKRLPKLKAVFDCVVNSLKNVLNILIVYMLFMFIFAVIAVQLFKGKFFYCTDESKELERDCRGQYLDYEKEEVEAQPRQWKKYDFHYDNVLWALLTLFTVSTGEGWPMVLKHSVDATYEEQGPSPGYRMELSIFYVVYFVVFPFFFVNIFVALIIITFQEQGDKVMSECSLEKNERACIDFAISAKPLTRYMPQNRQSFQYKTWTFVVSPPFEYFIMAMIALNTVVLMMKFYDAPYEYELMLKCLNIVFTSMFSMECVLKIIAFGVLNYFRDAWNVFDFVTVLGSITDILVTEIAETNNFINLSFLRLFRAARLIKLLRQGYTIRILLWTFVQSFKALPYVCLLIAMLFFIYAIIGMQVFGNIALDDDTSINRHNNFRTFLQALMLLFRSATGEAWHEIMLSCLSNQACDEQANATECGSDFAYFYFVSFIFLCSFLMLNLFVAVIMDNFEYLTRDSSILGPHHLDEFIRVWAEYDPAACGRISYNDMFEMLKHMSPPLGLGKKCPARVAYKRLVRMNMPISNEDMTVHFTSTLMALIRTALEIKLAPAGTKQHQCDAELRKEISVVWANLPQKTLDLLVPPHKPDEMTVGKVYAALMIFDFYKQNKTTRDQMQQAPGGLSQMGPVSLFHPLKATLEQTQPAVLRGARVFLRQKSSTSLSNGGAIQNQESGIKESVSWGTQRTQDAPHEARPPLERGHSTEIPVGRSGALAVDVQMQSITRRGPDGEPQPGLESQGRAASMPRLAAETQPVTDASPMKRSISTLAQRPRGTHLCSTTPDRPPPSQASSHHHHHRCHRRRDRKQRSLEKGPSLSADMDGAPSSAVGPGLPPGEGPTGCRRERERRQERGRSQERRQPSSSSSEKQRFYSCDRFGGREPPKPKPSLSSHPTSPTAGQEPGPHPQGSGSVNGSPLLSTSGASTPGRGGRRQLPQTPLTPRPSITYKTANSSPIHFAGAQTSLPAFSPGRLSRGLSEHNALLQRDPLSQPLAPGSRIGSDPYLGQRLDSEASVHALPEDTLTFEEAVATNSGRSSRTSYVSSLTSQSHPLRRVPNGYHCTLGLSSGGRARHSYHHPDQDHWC
# Sequence (P54289 25-956 partner limits assumed): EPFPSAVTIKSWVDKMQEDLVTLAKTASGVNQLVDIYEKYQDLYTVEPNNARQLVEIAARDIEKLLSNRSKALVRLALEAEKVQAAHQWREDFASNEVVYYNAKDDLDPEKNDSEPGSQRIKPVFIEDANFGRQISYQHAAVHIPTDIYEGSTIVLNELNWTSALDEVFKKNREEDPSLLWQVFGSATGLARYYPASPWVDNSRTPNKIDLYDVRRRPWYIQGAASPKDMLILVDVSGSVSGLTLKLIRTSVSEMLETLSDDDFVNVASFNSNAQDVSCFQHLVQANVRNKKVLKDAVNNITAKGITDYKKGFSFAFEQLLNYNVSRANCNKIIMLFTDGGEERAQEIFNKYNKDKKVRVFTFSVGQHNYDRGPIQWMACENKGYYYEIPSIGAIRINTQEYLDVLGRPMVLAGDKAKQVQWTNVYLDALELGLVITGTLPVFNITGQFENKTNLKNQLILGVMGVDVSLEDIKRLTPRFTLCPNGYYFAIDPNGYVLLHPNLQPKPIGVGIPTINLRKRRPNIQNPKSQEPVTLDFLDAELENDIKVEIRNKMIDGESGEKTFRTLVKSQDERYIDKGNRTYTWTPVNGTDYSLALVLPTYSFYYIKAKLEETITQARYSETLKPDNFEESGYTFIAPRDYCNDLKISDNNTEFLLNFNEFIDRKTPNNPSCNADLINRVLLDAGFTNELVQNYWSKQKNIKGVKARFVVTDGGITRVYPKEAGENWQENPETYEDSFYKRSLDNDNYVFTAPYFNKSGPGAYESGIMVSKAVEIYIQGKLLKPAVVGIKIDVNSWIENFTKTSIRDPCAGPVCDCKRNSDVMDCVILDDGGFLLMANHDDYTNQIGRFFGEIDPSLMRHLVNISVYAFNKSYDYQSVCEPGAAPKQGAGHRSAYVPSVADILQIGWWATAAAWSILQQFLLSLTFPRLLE
# Sequence (P54289 957-1103 partner limits assumed): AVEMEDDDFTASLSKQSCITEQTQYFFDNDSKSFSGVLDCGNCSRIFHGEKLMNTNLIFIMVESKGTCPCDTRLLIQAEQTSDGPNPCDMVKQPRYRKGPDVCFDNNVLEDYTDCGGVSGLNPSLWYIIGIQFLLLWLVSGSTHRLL
# Sequence (P54284 whole entry partner): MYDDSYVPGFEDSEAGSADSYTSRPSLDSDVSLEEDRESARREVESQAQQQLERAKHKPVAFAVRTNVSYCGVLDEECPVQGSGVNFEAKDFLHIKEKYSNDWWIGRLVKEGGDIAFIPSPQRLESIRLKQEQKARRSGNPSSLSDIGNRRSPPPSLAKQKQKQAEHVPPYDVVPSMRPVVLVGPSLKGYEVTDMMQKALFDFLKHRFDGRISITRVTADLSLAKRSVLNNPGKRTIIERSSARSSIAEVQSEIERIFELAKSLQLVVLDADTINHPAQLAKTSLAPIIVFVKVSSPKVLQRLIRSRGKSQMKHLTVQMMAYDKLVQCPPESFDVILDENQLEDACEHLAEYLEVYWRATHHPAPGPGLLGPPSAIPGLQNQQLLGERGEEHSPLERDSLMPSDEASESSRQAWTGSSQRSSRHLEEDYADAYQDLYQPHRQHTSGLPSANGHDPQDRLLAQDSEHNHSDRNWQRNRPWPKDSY
# PROTOCOL_TEXT: FLIPR calcium mobilization assay for N-type calcium channel
# CONDITIONS: N-type calcium channel (NTCC) blockers after a calcium mobilization in vitro assay; differentiated IMR32 cells
Assignment: determine reported IC50 for the given compounds.
Write it as a number; the unit nM goes unstated.

Input line: Find the measured IC50: item O=C(C=C1CCN(S(=O)(=O)c2cccc(C(F)(F)F)c2)CC1)NCC1CC1 , target or system N-type calcium channel (NTCC) (Homo sapiens, UniProt Q00975).
Output line: 829

Input line: Find the measured IC50: item O=C(C=C1CCN(S(=O)(=O)c2ccc(OC(F)(F)F)cc2)CC1)NC1(c2ccc(F)cc2)CC1 , target or system N-type calcium channel (NTCC) (Homo sapiens, UniProt Q00975).
Output line: 361

Input line: Find the measured IC50: item O=C(/C=C1\CCCN(S(=O)(=O)c2ccc(OC(F)(F)F)cc2)C1)NCC1CC1 , target or system N-type calcium channel (NTCC) (Homo sapiens, UniProt Q00975).
Output line: 695

Input line: Find the measured IC50: item CC(C)(c1cccc(C(F)(F)F)c1)N1CCC(=CC(=O)NCC2CC2)CC1 , target or system N-type calcium channel (NTCC) (Homo sapiens, UniProt Q00975).
Output line: 681

Input line: Find the measured IC50: item COC(C(=O)NCC1CC1)=C1CCN(S(=O)(=O)c2ccc(OC(F)(F)F)cc2)CC1 , target or system N-type calcium channel (NTCC) (Homo sapiens, UniProt Q00975).
Output line: 912

Input line: Find the measured IC50: item COC(=O)C(NC(=O)C=C1CCN(S(=O)(=O)c2ccc(OC(F)(F)F)cc2)CC1)c1ccc(F)cc1 (centres unmarked) , target or system N-type calcium channel (NTCC) (Homo sapiens, UniProt Q00975).
Output line: 865

Input line: Find the measured IC50: item O=C(C=C1CCN(S(=O)(=O)c2ccc(OC(F)(F)F)cc2)CC1)NCc1ccc(F)cc1 , target or system N-type calcium channel (NTCC) (Homo sapiens, UniProt Q00975).
Output line: 115

Input line: Find the measured IC50: item CO/C(=C\C1CN(S(=O)(=O)c2ccc(OC(F)(F)F)cc2)CCO1)C(=O)NC1CC1 (centres unmarked) , target or system N-type calcium channel (NTCC) (Homo sapiens, UniProt Q00975).
Output line: 857

Input line: Find the measured IC50: item O=C(C=C1CCN(S(=O)(=O)c2ccc(OC(F)(F)F)cc2)CC1)NCc1ccccc1 , target or system N-type calcium channel (NTCC) (Homo sapiens, UniProt Q00975).
Output line: 598

Input line: Find the measured IC50: item O=C(/C=C1\CCCN(S(=O)(=O)c2ccc(OC(F)(F)F)cc2)C1)NC1CC1 , target or system N-type calcium channel (NTCC) (Homo sapiens, UniProt Q00975).
Output line: 990

Input line: Find the measured IC50: item N#Cc1ccc(CNC(=O)C=C2CCN(S(=O)(=O)c3ccc(OC(F)(F)F)cc3)CC2)cc1 , target or system N-type calcium channel (NTCC) (Homo sapiens, UniProt Q00975).
Output line: 560

Input line: Find the measured IC50: item CO/C(=C/C1CCN(S(=O)(=O)c2ccc(OC(F)(F)F)cc2)CC1)C(=O)NC1CC1 , target or system N-type calcium channel (NTCC) (Homo sapiens, UniProt Q00975).
Output line: 832

Input line: Find the measured IC50: item O=C(C=C1CCN(S(=O)(=O)c2ccc(OC(F)(F)F)cc2)CC1)NC(CO)c1ccc(F)cc1 (centres unmarked) , target or system N-type calcium channel (NTCC) (Homo sapiens, UniProt Q00975).
Output line: 822

Input line: Find the measured IC50: item O=C(C=C1CCN(S(=O)(=O)c2ccc(OC(F)(F)F)cc2)CC1)NCCC1CC1 , target or system N-type calcium channel (NTCC) (Homo sapiens, UniProt Q00975).
Output line: 248

Input line: Find the measured IC50: item CN(Cc1ccc(F)cc1)C(=O)C=C1CCN(S(=O)(=O)c2ccc(OC(F)(F)F)cc2)CC1 , target or system N-type calcium channel (NTCC) (Homo sapiens, UniProt Q00975).
Output line: 161

Input line: Find the measured IC50: item CC(C)OCCNC(=O)C=C1CCN(S(=O)(=O)c2ccc(OC(F)(F)F)cc2)CC1 , target or system N-type calcium channel (NTCC) (Homo sapiens, UniProt Q00975).
Output line: 718

Input line: Find the measured IC50: item CO/C(=C\C1CCN(S(=O)(=O)c2ccc(OC(F)(F)F)cc2)CC1)C(=O)NC1CC1 , target or system N-type calcium channel (NTCC) (Homo sapiens, UniProt Q00975).
Output line: 555
